- Test system: HIV-1 (NL4-3 strain)
- assay-text: Assay for inhibition of HIV replication (ViKinG; infected MT4-GFP cells)
- Assay type: cell-based
- measurement-parameters: MT4-GFP cells infected with HIV-1 NL4-3; 100% normal human serum (NHS); read-out: ViKinG IP (nM) with 100% NHS
property-label: IC50 (nM)
Give just the numeric value; nM need not be written.

Answered examples (3):
> print(dat)
                                   compound  value.reported
1  COC1CCC2(CC1)Cn1cc(-c3nnc(Cc4ccc(F)cc4F)s3)c(=O)c(O)c1C(=O)N2C (stereo not shown) [Compound 212]            90.7
2  CN1C(=O)c2c(O)c(=O)c(-c3nnc(Cc4ccc(F)cc4F)s3)cn2N(C)C12CCC1C(=O)NC(=O)C1C2 (stereo not shown)            1610
3  CN1C(=O)c2c(O)c(=O)c(-c3nnc(Cc4ccc(F)cc4)s3)cn2N(C)C12CCC(O)CC2 (stereo not shown) [Compound 13]             862

QUERY: Any idea what IC50 was measured for CN1C2C(O)CCCN2C(=O)c2c(O)c(=O)c(-c3nnc(Cc4ccc(F)cc4F)s3)cn21 (stereo not shown) [Compound 167] ?
RESULT: 41.9
